- tested.on: T1, human CD39 on cells (human, UniProt P49961 1-510)
- T1 construct: One molecule for all cells that carry human CD39; the cell is named under assay; also called hCD39; cellular CD39
- T1 sequence: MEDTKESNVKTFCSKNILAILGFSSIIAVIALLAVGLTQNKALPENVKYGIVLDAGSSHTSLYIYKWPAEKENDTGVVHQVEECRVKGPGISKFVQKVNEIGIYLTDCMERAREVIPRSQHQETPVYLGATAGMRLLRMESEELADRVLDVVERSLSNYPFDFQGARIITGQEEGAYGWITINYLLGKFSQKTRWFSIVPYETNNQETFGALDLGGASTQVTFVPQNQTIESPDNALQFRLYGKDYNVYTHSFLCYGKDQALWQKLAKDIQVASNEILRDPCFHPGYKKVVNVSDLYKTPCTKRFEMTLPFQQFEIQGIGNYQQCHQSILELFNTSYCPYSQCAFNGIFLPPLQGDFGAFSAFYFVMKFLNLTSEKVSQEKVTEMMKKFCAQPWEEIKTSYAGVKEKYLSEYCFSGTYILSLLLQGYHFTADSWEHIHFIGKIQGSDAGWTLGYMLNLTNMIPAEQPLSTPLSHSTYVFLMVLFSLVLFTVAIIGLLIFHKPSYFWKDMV
- experiment.description: flow cytometry, 100 nM IgG, hCD39-CHO cells; MFI ratio to parental CHO
quantity.kind: Cell Binding (FOB)
Dear colleague, please return just the value in FOB, with no unit written.

Req: // Input: 31861 (antibody, V domains shown) VH: QVQLVQSGAEVKKPGSSVKVSCKASGGTFGSYGISWVRQAPGQGLEWMGSIIPEFGIANYAQKFQGRVTITADESTSTAYMELSSLRSEDTAVYYCARESGTYRDHRLDVWGQGTMVTVSS VL: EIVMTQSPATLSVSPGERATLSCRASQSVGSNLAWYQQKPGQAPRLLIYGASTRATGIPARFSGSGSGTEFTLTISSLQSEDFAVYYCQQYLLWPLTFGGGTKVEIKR . Output its Cell Binding (FOB) only.
Resp: 1430

Req: // Input: 31393 (antibody, V domains shown) VH: QVQLVQSGAEVKKPGSSVKVSCKASGGTFESYGISWVRQAPGQGLEWMGSIIPEFGIANYAQKFQGRVTITADESTSTTYMELSSLRSEDTAVYYCARESGGYRDHRLDVWGQGTMVTVSS VL: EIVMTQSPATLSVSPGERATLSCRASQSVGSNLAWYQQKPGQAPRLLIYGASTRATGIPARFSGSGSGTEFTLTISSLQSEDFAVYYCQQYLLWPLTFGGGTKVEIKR . Output its Cell Binding (FOB) only.
Resp: 1060

Req: // Input: 27549 (antibody, V domains shown) VH: QVQLVESGGGVVQPGRSLRLSCAASGFTFSSYGMNWVRQAPGKGLEWVAVIWYDGSNKYYADSVKGRFTISRDNSKNTLYLQMNSLRAEDTAVYYCARDLGGYSYGEPYYYYYGMDVWGQGTTVTVSS VL: EIVLTQSPGTLSLSPGERATLSCRASQSVSSDYLAWYQQKPGQAPRLLIYGASSRATGIPDRFSGSGSGTDFTLTISRLEPEDFAVYYCQQAHSSPYTFGGGTKVEIKR . Output its Cell Binding (FOB) only.
Resp: 822
